Reference source for all entries: BigSolDB 2.1

Conditions: in anisole, 288.15 K
Measure Name: solubility (mole fraction)
Could you respond with only the numeric value?

Q) Please report the recorded solubility (mole fraction) for O=[N+]([O-])c1cc[nH]n1 .
A) 0.00551

====

Settings: in 2-ethylhexyl acetate, 303.15 K
Measure Name: solubility (mole fraction)
Could you respond with only the numeric value?

Q) Please report the recorded solubility (mole fraction) for O=[N+]([O-])c1cc[nH]n1 .
A) 0.0134

====

Details: in benzyl alcohol, 313.15 K
Measure Name: solubility (mole fraction)
Could you respond with only the numeric value?

Q) Please report the recorded solubility (mole fraction) for O=[N+]([O-])c1cc[nH]n1 .
A) 0.0581

====

Conditions: in 1,2-dichlorobenzene, 318.15 K
Measure Name: solubility (mole fraction)
Could you respond with only the numeric value?

Q) Please report the recorded solubility (mole fraction) for O=[N+]([O-])c1cc[nH]n1 .
A) 0.0166

====

Settings: in benzonitrile, 323.15 K
Measure Name: solubility (mole fraction)
Could you respond with only the numeric value?

Q) Please report the recorded solubility (mole fraction) for O=[N+]([O-])c1cc[nH]n1 .
A) 0.0828

====

Conditions: in benzyl alcohol, 288.15 K
Measure Name: solubility (mole fraction)
Could you respond with only the numeric value?

Q) Please report the recorded solubility (mole fraction) for O=[N+]([O-])c1cc[nH]n1 .
A) 0.0296

====

Conditions: in mesitylene, 283.15 K
Measure Name: solubility (mole fraction)
Could you respond with only the numeric value?

Q) Please report the recorded solubility (mole fraction) for O=[N+]([O-])c1cc[nH]n1 .
A) 0.00129

====

Conditions: in 2-ethylhexyl acetate, 313.15 K
Measure Name: solubility (mole fraction)

Q) Please report the recorded solubility (mole fraction) for O=[N+]([O-])c1cc[nH]n1 .
A) 0.0166

====

Conditions: in benzonitrile, 308.15 K
Measure Name: solubility (mole fraction)
Could you respond with only the numeric value?

Q) Please report the recorded solubility (mole fraction) for O=[N+]([O-])c1cc[nH]n1 .
A) 0.0396

====

Conditions: in n-octanol, 283.15 K
Measure Name: solubility (mole fraction)
Could you respond with only the numeric value?

Q) Please report the recorded solubility (mole fraction) for O=[N+]([O-])c1cc[nH]n1 .
A) 0.0127

====

Conditions: in n-octanol, 318.15 K
Measure Name: solubility (mole fraction)
Could you respond with only the numeric value?

Q) Please report the recorded solubility (mole fraction) for O=[N+]([O-])c1cc[nH]n1 .
A) 0.0362

====

Conditions: in anisole, 303.15 K
Measure Name: solubility (mole fraction)
Could you respond with only the numeric value?

Q) Please report the recorded solubility (mole fraction) for O=[N+]([O-])c1cc[nH]n1 .
A) 0.0078

====

Details: in 2-ethylhexyl acetate, 283.15 K
Measure Name: solubility (mole fraction)
Could you respond with only the numeric value?

Q) Please report the recorded solubility (mole fraction) for O=[N+]([O-])c1cc[nH]n1 .
A) 0.00998

====

Conditions: in n-octanol, 313.15 K
Measure Name: solubility (mole fraction)
Could you respond with only the numeric value?

Q) Please report the recorded solubility (mole fraction) for O=[N+]([O-])c1cc[nH]n1 .
A) 0.0315

====

Settings: in benzonitrile, 288.15 K
Measure Name: solubility (mole fraction)
Could you respond with only the numeric value?

Q) Please report the recorded solubility (mole fraction) for O=[N+]([O-])c1cc[nH]n1 .
A) 0.0223

====

Settings: in benzonitrile, 303.15 K
Measure Name: solubility (mole fraction)
Could you respond with only the numeric value?

Q) Please report the recorded solubility (mole fraction) for O=[N+]([O-])c1cc[nH]n1 .
A) 0.0342
